# TARGET OR TEST SYSTEM: GABA-A receptor; anion channel
# EXPERIMENT DESCRIPTION: Inhibition of [3H]EBOB binding at GABA-gated chloride channel NCB site in bovine brain membranes
Recorded measurements of IC50, one per entry
Supply the numeric figure in nM, leaving out any unit text.

Check out these entries, answers already filled in.
[[record]]
compound = "COC(=O)CCC#Cc1ccc(C2SCC(C(C)(C)C)CS2)cc1 (configuration not stated)"
quantitative_result = 17

[[record]]
compound = "CC(C)(C)C1CSC(c2ccc(C#CCO)cc2)SC1 (configuration not stated)"
quantitative_result = 76

[[record]]
compound = "CCC#Cc1ccc(C2SCC(C(C)(C)C)CS2)cc1 (configuration not stated)"
quantitative_result = 690


Supply reported IC50 belonging to this compound: CC(C)(C)C1CSC(c2ccc(C#CC(=O)O)cc2)SC1 (configuration not stated) 7

Return IC50 for the following compound: CC(C)(C)C1CSC(c2ccc(C#CCCC(=O)C=[N+]=[N-])cc2)SC1 (configuration not stated) 830

Tell me its IC50 given CCOC(=O)CC#Cc1ccc(C2SCC(C(C)(C)C)CS2)cc1 (configuration not stated) as the entry. 460

* * *

Measured pIC50 values are reported for all entries that follow.
# TARGET OR TEST SYSTEM: GABA-A receptor; anion channel
# EXPERIMENT DESCRIPTION: Inhibition of [3H]EBOB binding at GABA-gated chloride channel NCB site in bovine brain membranes
pIC50 here: minus log base 10 of the concentration, concentration in moles per litre.

Return the recorded pIC50 value; entry: CC(C)(C)C1CSC(c2ccc(C#CCCCO)cc2)SC1 (configuration not stated) 6.39

Give recorded pIC50. CC(C)(C)C1CSC(c2ccc(C#CC(=O)C=[N+]=[N-])cc2)SC1 (configuration not stated) 6.16

Supply recorded pIC50 for CC(C)(C)C1CSC(c2ccc(C#CCCP(=O)(O)O)cc2)SC1 (configuration not stated) here. 8.00

Please indicate pIC50 recorded for COC(=O)C#Cc1ccc(C2SCC(C(C)(C)C)CS2)cc1 (configuration not stated) 8.05

# return recorded pIC50 for entry CCOP(=O)(CCC#Cc1ccc(C2SCC(C(C)(C)C)CS2)cc1)OCC (configuration not stated) 5.52

# return recorded pIC50 for input CCCC#Cc1ccc(C2SCC(C(C)(C)C)CS2)cc1 (configuration not stated) 5.17

Give pIC50 for CC(C)(C)C1CSC(c2ccc(C#CCCO)cc2)SC1 (configuration not stated) 6.40

* * *

# TARGET OR TEST SYSTEM: GABA-A receptor; anion channel
# EXPERIMENT DESCRIPTION: Inhibition of [3H]EBOB binding at GABA-gated chloride channel NCB site in bovine brain membranes
MEASURED PARAMETER: IC50
Please format your answer as a value with the unit trailing.

[[record]]
compound = "CC(C)(C)C1CSC(c2ccc(C#CCCC(=O)O)cc2)SC1 (stereo not given)"
target_or_test_system = "GABA-A receptor; anion channel"
measured_parameter = "IC50"
result = "5 nM"

[[record]]
compound = "CC(O)C#Cc1ccc(C2SCC(C(C)(C)C)CS2)cc1 (stereo not given)"
target_or_test_system = "GABA-A receptor; anion channel"
measured_parameter = "IC50"
result = "3100 nM"

[[record]]
compound = "CC(C)(C)C1CSC(c2ccc(C#CCC(=O)O)cc2)SC1 (stereo not given)"
target_or_test_system = "GABA-A receptor; anion channel"
measured_parameter = "IC50"
result = "23 nM"

[[record]]
compound = "C#Cc1ccc(C2SCC(C(C)(C)C)CS2)cc1 (stereo not given)"
target_or_test_system = "GABA-A receptor; anion channel"
measured_parameter = "IC50"
result = "21 nM"


Please examine the following record next.
For the compound CC#Cc1ccc(C2SCC(C(C)(C)C)CS2)cc1 (stereo not given) , report IC50. 35 nM
